Source of measurements: patent US20250340654A1

# Target under test: T1, Canine IL-31RA ECD-10His (canine, biotin-labeled in the Octet assay (site not stated))
# T1 construct: The ELISA and Octet protocols say only 'IL-31RA' or 'canine IL-31RA'; also called cIL-31RA; canine IL-31 receptor alpha extracellular domain, HIS-tagged
# T1 chain: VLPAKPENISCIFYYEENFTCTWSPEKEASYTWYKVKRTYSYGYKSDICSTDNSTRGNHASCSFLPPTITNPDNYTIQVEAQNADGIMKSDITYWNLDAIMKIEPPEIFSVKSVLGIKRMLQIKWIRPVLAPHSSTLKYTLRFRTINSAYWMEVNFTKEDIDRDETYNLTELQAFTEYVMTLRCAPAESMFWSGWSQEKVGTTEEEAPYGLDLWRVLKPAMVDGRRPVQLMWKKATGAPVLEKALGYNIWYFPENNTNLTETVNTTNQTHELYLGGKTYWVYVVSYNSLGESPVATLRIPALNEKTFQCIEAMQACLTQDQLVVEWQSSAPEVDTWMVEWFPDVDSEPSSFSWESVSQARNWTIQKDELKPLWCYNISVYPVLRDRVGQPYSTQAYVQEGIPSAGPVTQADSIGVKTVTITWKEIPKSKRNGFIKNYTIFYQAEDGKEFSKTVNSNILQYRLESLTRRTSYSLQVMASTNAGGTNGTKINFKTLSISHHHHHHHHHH
# Protocol details: ELISA on coated canine IL-31RA, anti-canine IgG Fc-HRP (Example 11), the unit is that of the x axis 'Ab Log Conc. (ng/mL)'
# label = label 1 if EC50 < 0.02 µg/mL else label 0

# example entries with known answers
[[record]]
binder = "c218D9VH3VL2 (antibody, V domains shown, Caninized antibody; chains tied by name to c218D9VH3-cIgGBm and c218D9VL2-cCK; also called c218D9VH3L2) VH: EVTLQESGPGLVKPSQTLSLTCSFSGFSLSTFGRGVGWIRQRPGRGLEWMGHIWWDDDKYYNPALKSRLSITKDTAKNQFSLQLSSMTTEDTAVYYCARIAGGLRRAPYAMDSWGQGTLVTVSS VL: DIVMTQTPLSLSVSPGETASISCRASENIYSSLAWFRQKPGQSPQLLIYAATNLADGVPDRFSGSGSGTDFTLRISRVEADDTGVYYCQHFRDTPPTFGQGTKLEIKR"
answer_label = "label 1"

[[record]]
binder = "c51F8VH3VL6 (antibody, V domains shown, Caninized antibody; chains tied by name to c51F8VH3-cIgGBm and c51F8VL6-cCK; also called c51F8VH3L6) VH: EVQLVQSGAEVKKPGASVKVSCTASGFNIKNTFIHWVRQAPGAGLDWIGRIDPANGNTKYAPKFQGRATLTADTSTNTAYMQLSSLRAGDIAVYYCARYYYVSSYFDVWGQGTLVTVSS VL: DIVMTQTPLSLSVSPGETASISCKASQSVTNDVTWFRQKPGQSPQLLIYSASNRYTGVPDRFSGSGSGTDFTLRISTVEADDTGVYYCQQDYSSPWTFGQGTKLEIKR"
answer_label = "label 1"

[[record]]
binder = "c51F8VH3VL7 (antibody, V domains shown, Caninized antibody; chains tied by name to c51F8VH3-cIgGBm and c51F8VL7-cCK; also called c51F8VH3L7) VH: EVQLVQSGAEVKKPGASVKVSCTASGFNIKNTFIHWVRQAPGAGLDWIGRIDPANGNTKYAPKFQGRATLTADTSTNTAYMQLSSLRAGDIAVYYCARYYYVSSYFDVWGQGTLVTVSS VL: DIVMTQTPLSLSVSPGETASISCKASQSVTNDVTWFRQKPGQSPKLLIYSASNRYTGVPDRFSGSGSGTDFTLRISTVEADDTGVYYCQQDYSSPWTFGQGTKLEIKR"
answer_label = "label 0"


Please let me know if c51F8VH4VL7 (antibody, V domains shown, Caninized antibody; chains tied by name to c51F8VH4-cIgGBm and c51F8VL7-cCK; also called c51F8VH4L7) VH: EVQLVQSGAEVVKPGASVKVSCTASGFNIKNTFIHWVRQRPGAGLDWIGRIDPANGNTKYAPKFQGRATLTADTSTNTAYMQLSSLRAGDIAVYYCARYYYVSSYFDVWGTGTLVTVSS VL: DIVMTQTPLSLSVSPGETASISCKASQSVTNDVTWFRQKPGQSPKLLIYSASNRYTGVPDRFSGSGSGTDFTLRISTVEADDTGVYYCQQDYSSPWTFGQGTKLEIKR shows EC50 below 0.02 µg/mL.
label 1

Please answer likewise for c51F8VH4VL6 (antibody, V domains shown, Caninized antibody; chains tied by name to c51F8VH4-cIgGBm and c51F8VL6-cCK; also called c51F8VH4L6) VH: EVQLVQSGAEVVKPGASVKVSCTASGFNIKNTFIHWVRQRPGAGLDWIGRIDPANGNTKYAPKFQGRATLTADTSTNTAYMQLSSLRAGDIAVYYCARYYYVSSYFDVWGTGTLVTVSS VL: DIVMTQTPLSLSVSPGETASISCKASQSVTNDVTWFRQKPGQSPQLLIYSASNRYTGVPDRFSGSGSGTDFTLRISTVEADDTGVYYCQQDYSSPWTFGQGTKLEIKR
label 1
